- measured-target: μ (rat) opioid receptor (Rattus norvegicus, UniProt P33535)
- Sequence (P33535 whole entry): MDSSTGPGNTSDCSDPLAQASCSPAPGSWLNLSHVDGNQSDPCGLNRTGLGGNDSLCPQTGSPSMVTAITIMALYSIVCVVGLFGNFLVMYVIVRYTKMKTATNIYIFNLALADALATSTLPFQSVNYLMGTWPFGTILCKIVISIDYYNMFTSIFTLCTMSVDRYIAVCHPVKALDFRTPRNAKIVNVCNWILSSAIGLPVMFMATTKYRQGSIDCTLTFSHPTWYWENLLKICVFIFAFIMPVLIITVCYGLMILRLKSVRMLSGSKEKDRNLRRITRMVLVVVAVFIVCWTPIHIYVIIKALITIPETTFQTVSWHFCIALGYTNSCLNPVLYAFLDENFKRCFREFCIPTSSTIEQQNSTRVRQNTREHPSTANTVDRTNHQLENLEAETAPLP
- measurement-protocol: Opioid-agonist activity: stimulation of [35S]-GTP's binding
measured-endpoint: EC50 (µM)
Could you give me the number in µM? Just the number is fine.

Task: Recorded EC50 for COc1ccc2c3c1O[C@H]1C(OC(=O)C(CCC(=O)O)NC(=O)OCc4ccccc4)=CC[C@@]4(O)[C@@H](C2)N(C)CC[C@]314 (stereo partly shown) , please?
Output: 3.38

# credit: patent US20040204434A1
